The measurements presented in this section are drawn from patent US7657380.

Target: T1, CD30 fused to the Fc region of IgG1 (R&D Systems) (UniProt P28908 19-379)
T1 sequence (looked up): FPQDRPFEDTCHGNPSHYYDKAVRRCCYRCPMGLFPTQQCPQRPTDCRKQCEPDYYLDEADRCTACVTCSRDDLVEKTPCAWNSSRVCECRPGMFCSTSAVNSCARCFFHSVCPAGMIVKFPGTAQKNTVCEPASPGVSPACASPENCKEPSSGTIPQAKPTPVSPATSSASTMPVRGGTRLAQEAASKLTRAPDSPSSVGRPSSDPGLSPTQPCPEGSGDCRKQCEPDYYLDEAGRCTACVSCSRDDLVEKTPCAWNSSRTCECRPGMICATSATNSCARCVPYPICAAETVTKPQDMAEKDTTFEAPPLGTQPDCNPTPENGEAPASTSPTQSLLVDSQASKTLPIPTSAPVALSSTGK
Test: SPR, CD30-Fc on Protein A chip
OBSERVATION_TYPE: Kd
Kindly format the answer as number then unit.

Short answer for AC10 H3/L2 full length antibody (antibody, V domains shown) VH: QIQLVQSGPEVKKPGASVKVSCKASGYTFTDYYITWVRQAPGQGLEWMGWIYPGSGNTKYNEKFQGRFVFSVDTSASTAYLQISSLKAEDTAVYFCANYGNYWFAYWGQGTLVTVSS VL: DIVLTQSPSSLSASVGDRVTITCRASQSVDFDGDSYMNWYQQKPGQPPKVLIYAASNLESGIPARFSGSGSGTDFTLTISSLQPEDFATYYCQQSNEDPWTFGGGTKVEIK : Kd was 2.86 nM
